Molecular target: sodium iodide symporter (NIS), iodide uptake in FRTL5 cells (Rattus norvegicus)
Construct: endogenous in cells; host or cells: FRTL5 (rat thyroid-derived cells)
Sequence (Q63008 whole entry): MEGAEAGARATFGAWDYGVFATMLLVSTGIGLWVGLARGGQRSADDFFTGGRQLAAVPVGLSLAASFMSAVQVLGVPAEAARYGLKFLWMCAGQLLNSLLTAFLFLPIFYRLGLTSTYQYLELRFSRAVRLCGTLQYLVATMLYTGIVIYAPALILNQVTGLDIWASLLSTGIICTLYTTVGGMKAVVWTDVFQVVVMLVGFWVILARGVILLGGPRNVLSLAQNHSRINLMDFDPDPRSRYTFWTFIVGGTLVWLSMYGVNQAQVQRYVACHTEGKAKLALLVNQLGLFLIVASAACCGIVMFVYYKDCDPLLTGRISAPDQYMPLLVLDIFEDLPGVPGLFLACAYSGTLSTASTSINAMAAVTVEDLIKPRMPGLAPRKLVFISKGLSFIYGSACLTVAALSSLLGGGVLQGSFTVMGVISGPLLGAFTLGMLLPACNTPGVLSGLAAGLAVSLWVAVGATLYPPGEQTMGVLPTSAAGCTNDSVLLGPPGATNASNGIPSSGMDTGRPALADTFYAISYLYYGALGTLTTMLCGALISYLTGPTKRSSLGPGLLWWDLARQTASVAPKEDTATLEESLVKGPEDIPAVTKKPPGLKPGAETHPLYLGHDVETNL
Assay: Inhibition of iodide uptake in FRTL5 cells, non radioactive arsenic/cerium assay
Type: cell-based
Conditions: Table 5, variations at Y, R1, R3, R4, R5; averaged from two to four independent experiments; NaI 10 μM, 1 hour, 20°C; read-out: IC50 (μM), inhibitory activity against iodide uptake in FRTL5 cells
attribute measured: IC50 (nM)
Expressed in nM, but write only the number.

>>> readout_number("COc1ccc(COC(=O)C2=C(C)N(C)C(=O)N(C)C2c2ccco2)cc1OC (centres unmarked)")
65

**Query** Supply recorded IC50 for CC1=C(C(=O)OCc2ccc3c(c2)OCO3)C(c2ccco2)NC(=O)N1C (centres unmarked) here.
**Result** 73

**Query** Supply recorded IC50 for CC1=C(C(=O)OCc2ccc3c(c2)OCO3)C(c2ccco2)N(C)C(=O)N1C (centres unmarked) here.
**Result** 0.85

**Query** Supply recorded IC50 for COc1cccc(COC(=O)C2=C(C)NC(=O)NC2c2ccco2)c1 (centres unmarked) here.
**Result** 0.57
